Reference source for all entries: paper PMC6673701

Target: T1, C-terminal cargo-binding domain (CBD) of Myosin VI (residues 1157–1285) (human, UniProt Q9UM54-1 1157-1285)
T1 construct: monomer by light scattering and ultracentrifugation; 15N-labelled in some NMR experiments; also called C-terminal CBD of Myosin VI; source: E. coli BL21 (DE3), purified (Ni-NTA, SEC); not shown: thioredoxin, N-terminal, cleaved; His6, N-terminal, cleaved
T1 sequence (Q9UM54 1166-1294): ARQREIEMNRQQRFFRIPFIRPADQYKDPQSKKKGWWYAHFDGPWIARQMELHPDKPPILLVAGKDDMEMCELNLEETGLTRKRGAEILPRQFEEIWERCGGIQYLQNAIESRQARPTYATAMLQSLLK
Assay: ITC; 25 °C, 20 mM Tris pH 7.9, 100 mM NaCl, 1 mM DTT; 50 µM protein in the cell, 500 µM in the syringe; one-site binding model
Details: both partners purified
MEASURED_METRIC: dH (kcal/mol)
Write it as a number; the unit kcal/mol goes unstated.

Solved cases (4 shown):
BINDER: Tom1(392–493) (domain or fragment, human, UniProt O60784-2 392-493, looked up, 15N-labelled in one NMR titration; source: E. coli BL21 (DE3), purified (Ni-NTA, SEC); not shown: thioredoxin, N-terminal, cleaved; His6, N-terminal, cleaved) TDGLAGALDARQQSTGAIPVTQACLMEDIEQWLSTDVGNDAEEPKGVTSEGKFDKFLEERAKAADRLPNLSSPSAEGPPGPPSGPAPRKKTQEKDDDMLFAL
dH / kcal/mol: -9.9

BINDER: Tom1(392–463) (domain or fragment, human, UniProt O60784-2 392-463, looked up, 15N-labelled in one NMR titration; source: E. coli BL21 (DE3), purified (Ni-NTA, SEC); not shown: thioredoxin, N-terminal, cleaved; His6, N-terminal, cleaved) TDGLAGALDARQQSTGAIPVTQACLMEDIEQWLSTDVGNDAEEPKGVTSEGKFDKFLEERAKAADRLPNLSS
dH / kcal/mol: -10.6

BINDER: GVTSEGKFDKFLEERAKAADRLPNLSS (domain or fragment, human, UniProt O60784-2 437-463, looked up, monomer by light scattering and ultracentrifugation; also called Tom1 MBM; source: E. coli BL21 (DE3), purified (Ni-NTA, SEC); not shown: thioredoxin, N-terminal, cleaved; His6, N-terminal, cleaved) [Tom1(437–463), Myosin VI-binding motif]
dH / kcal/mol: -14.9

BINDER: Tom1(215–493) (domain or fragment, human, UniProt O60784-2 215-493, looked up, source: E. coli BL21 (DE3), purified (Ni-NTA, SEC); not shown: thioredoxin, N-terminal, cleaved; His6, N-terminal, cleaved) EQIGKLRSELEMVSGNVRVMSEMLTELVPTQAEPADLELLQELNRTCRAMQQRVLELIPQIANEQLTEELLIVNDNLNNVFLRHERFERFRTGQTTKAPSEAEPAADLIDMGPDPAATGNLSSQLAGMNLGSSSVRAGLQSLEASGRLEDEFDMFALTRGSSLADQRKEVKYEAPQATDGLAGALDARQQSTGAIPVTQACLMEDIEQWLSTDVGNDAEEPKGVTSEGKFDKFLEERAKAADRLPNLSSPSAEGPPGPPSGPAPRKKTQEKDDDMLFAL
dH / kcal/mol: -7.61

Exam item: Bench note: what dH did Tom1(437–493) (domain or fragment, human, UniProt O60784-2 437-493, looked up, source: E. coli BL21 (DE3), purified (Ni-NTA, SEC); not shown: thioredoxin, N-terminal, cleaved; His6, N-terminal, cleaved) GVTSEGKFDKFLEERAKAADRLPNLSSPSAEGPPGPPSGPAPRKKTQEKDDDMLFAL show?
Marked response: -12.7
